Test system: Caenorhabditis elegans N2
Assay: mean nematode size ln(EXT) after 48 h, plate-adjusted (DMSO control set to 6) (ln(EXT), control-adjusted); higher = larger nematodes / less growth inhibition
Conditions: 0.5 µM; exposure time 48 h
Measured mean nematode size ln(EXT) (ln) by item

[[record]]
smiles_code = "Oc1cc2ccccc2c2ccccc12"
assay_system = "Caenorhabditis elegans N2"
readout_name = "mean nematode size ln(EXT) (ln)"
assay_result = 5.85

[[record]]
smiles_code = "Cc1cccc(C)c1O"
assay_system = "Caenorhabditis elegans N2"
readout_name = "mean nematode size ln(EXT) (ln)"
assay_result = 5.9


[in] Return reported mean nematode size ln(EXT) (ln); argument: `COc1ccc(O)c(C(C)(C)C)c1`
[out] 5.78

[in] Return reported mean nematode size ln(EXT) (ln); argument: `Cc1cccc([N+](=O)[O-])c1C`
[out] 5.81

[in] Return reported mean nematode size ln(EXT) (ln); argument: `Cc1nc(C)nc(N2C[C@@H](C)N(c3ccnc([C@@H](C)O)n3)[C@@H](C)C2)n1`
[out] 5.83

---

System: Caenorhabditis elegans N2
Assay: mean nematode size ln(EXT) after 48 h, plate-adjusted (DMSO control set to 6) (ln(EXT), control-adjusted); higher = larger nematodes / less growth inhibition
Conditions: 5 µM; exposure time 48 h
READOUT_NAME: mean nematode size ln(EXT) (ln)
Please reply with the value in numeric form only.

Use the examples below as a reference point.
[[record]]
molecule = "CCCN(CCC)c1c([N+](=O)[O-])cc(C(F)(F)F)cc1[N+](=O)[O-] [Trifluralin]"
assay_system = "Caenorhabditis elegans N2"
assay_result = 6.05

[[record]]
molecule = "CCC(C)(C)C(=O)OC1=C(c2ccc(Cl)cc2Cl)C(=O)OC12CCCCC2 [Spirodiclofen]"
assay_system = "Caenorhabditis elegans N2"
assay_result = 5.7

[[record]]
molecule = "Nc1cc(Cl)cc(C(=O)O)c1Cl [Chloramben]"
assay_system = "Caenorhabditis elegans N2"
assay_result = 5.88


[in] Could you share what mean nematode size ln(EXT) (ln) was measured for CCCCC(CC)COC(=O)c1ccc(C(=O)OCC(CC)CCCC)c(C(=O)OCC(CC)CCCC)c1 (stereo unspecified) [Tris(2-ethylhexyl)trimellitate] , tested on Caenorhabditis elegans N2?
[out] 5.94

[in] Could you share what mean nematode size ln(EXT) (ln) was measured for CCCCC(C#N)(Cn1cncn1)c1ccc(Cl)cc1 (stereo unspecified) [Myclobutanil] , tested on Caenorhabditis elegans N2?
[out] 5.8

[in] Could you share what mean nematode size ln(EXT) (ln) was measured for `COc1ccc2cc(S(=O)(=O)N[C@H](CC(=O)N[C@H](Cc3ccc(CN4[C@H](C)CCC[C@@H]4C)cc3)C(=O)N(C)C(C)C)c3ccc4c(c3)OCO4)ccc2c1` , tested on Caenorhabditis elegans N2?
[out] 5.85

[in] Could you share what mean nematode size ln(EXT) (ln) was measured for C=CC(=O)OCCCCCC(C)C [Isooctyl acrylate] , tested on Caenorhabditis elegans N2?
[out] 5.59

[in] Could you share what mean nematode size ln(EXT) (ln) was measured for Cc1cc(Cc2ccc(N)c(C)c2)ccc1N [4,4'-Methylene bis(2-methylaniline)] , tested on Caenorhabditis elegans N2?
[out] 5.8

[in] Could you share what mean nematode size ln(EXT) (ln) was measured for Cc1ccc(C(C)(C)C)c(O)c1 [2-tert-Butyl-5-methylphenol] , tested on Caenorhabditis elegans N2?
[out] 6.02

[in] Could you share what mean nematode size ln(EXT) (ln) was measured for O=C(O)C(F)(F)C(F)(F)C(F)(F)C(F)(F)C(F)(F)C(F)(F)F [Perfluoroheptanoic acid] , tested on Caenorhabditis elegans N2?
[out] 5.88

[in] Could you share what mean nematode size ln(EXT) (ln) was measured for C/C=C/C=C/C(=O)O [Sorbic acid] , tested on Caenorhabditis elegans N2?
[out] 5.82
